Assay: solubility in water (descriptive)
Format: physicochemical
measured-quantity: solubility in water

Check out these entries, answers already filled in.
O.O.O.O.O.O.O.O.O.O.O.O.O.O.O.O.O=C([O-])c1cccc(C(=O)[O-])c1.O=C([O-])c1cccc(C(=O)[O-])c1.[Mn+2].[Mn+2].c1cnc2c(c1)ccc1cccnc12.c1cnc2c(c1)ccc1cccnc12.c1cnc2c(c1)ccc1cccnc12.c1cnc2c(c1)ccc1cccnc12.c1cnc2c(c1)ccc1cccnc12 [compound 8, {[Mn(phen)2(H2O)2]}2(isoph)2(phen)·12H2O] | water-insoluble
O.O.O=C([O-])c1ccccc1C(=O)[O-].[Mn+2].c1cnc2c(c1)ccc1cccnc12 [compound 5, [Mn(ph)(phen)(H2O)2]] | water-insoluble
O.O.O.O.O.O=C([O-])c1ccccc1C(=O)[O-].[Mn+2].c1cnc2c(c1)ccc1cccnc12.c1cnc2c(c1)ccc1cccnc12 [compound 6, [Mn(ph)(phen)2(H2O)]·4H2O] | water-insoluble
O.O.O.O.O.O=C([O-])c1ccc(C(=O)[O-])cc1.[Mn+2].c1cnc2c(c1)ccc1cccnc12.c1cnc2c(c1)ccc1cccnc12 [compound 9, [Mn(tereph)(phen)2]·5H2O] | water-insoluble

Then this molecule:
Which solubility in water is reported for this molecule? O.O.O.O.O=C([O-])c1cccc(C(=O)[O-])c1.O=C([O-])c1cccc(C(=O)[O-])c1.[Mn+2].[Mn+2].c1cnc2c(c1)ccc1cccnc12.c1cnc2c(c1)ccc1cccnc12.c1cnc2c(c1)ccc1cccnc12 [compound 7, [Mn2(isoph)2(phen)3]·4H2O]
water-insoluble
